Assay: Primary qHTS for delayed death inhibitors of the malarial parasite plastid, 48 hour incubation
Conditions: P. falciparum luciferase growth in erythrocytes; series mostly up to 28.7 µM
In all, about 310,000 compounds went through this assay and about 18,000 (5.8%) were called active. Not shown: some 22% with an inconclusive outcome. Calls follow the shape of the dose curve; as a rule, active = well fitted inhibition curve with a large enough effect; inconclusive = small, poorly fitted or top-dose-only effect, or another doubt; inactive = no such curve, though single readings can be large or run the other way. The entries come from a sample that favours actives as a whole.
Tick one outcome: active, inactive

{"compound": "O=c1cc(CO)oc(CN2CCC(Cc3ccccc3)CC2)c1O", "discrete-label": "inactive"}

[ask] What is the recorded call for this compound in the test? Cc1c(C(=O)NNC(=O)c2ccncc2)oc2ccccc12
[reply] inactive

[ask] Identify the outcome logged in this assay for the compound shown: COc1ccc(N2C(=O)C(Cc3ccccc3)NC2=S)cc1 (configuration not stated)
[reply] inactive

[ask] Hi team, can someone confirm the assay call for O=C(NC1(C(F)(F)F)NC(=O)N(C2CCCCC2)C1=O)c1ccco1 (configuration not stated) ?
[reply] inactive

[ask] Each compound tested received a call. Report the one for Cc1ccc(-n2ncc3c2CCCC3NC(=O)c2cnccn2)cc1C (configuration not stated) .
[reply] inactive

[ask] What is the recorded call for this compound in the test? Cc1nonc1NC(=O)c1oc2ccccc2c1C
[reply] active

[ask] // return assay outcome for Cc1cccc([C@@H]2[C@@H]3C(=O)N(Cc4ccccc4)C(=O)[C@@H]3[C@]3(Cc4ccc(Cl)cc4)C(=O)N(c4cccc(Cl)c4)C(=O)N23)c1
[reply] active

====

Assay: Primary qHTS for delayed death inhibitors of the malarial parasite plastid, 48 hour incubation
Settings: P. falciparum luciferase growth in erythrocytes; series mostly up to 28.7 µM
Screen size: about 310,000 compounds; about 18,000 (5.8%) were called active. Not shown: some 22% with an inconclusive outcome. Calls come from the whole dose curve; as a rule, active = well fitted inhibition curve with a large enough effect; inconclusive = small, poorly fitted or top-dose-only effect, or another doubt; inactive = no such curve, though single readings can be large or run the other way. Only a selection was taken, and actives are over-represented in it overall.
Respond using exactly one of the listed classes: 1.0 (active), 0.0 (inactive)

{"compound": "CC1CCCCC1NC(=O)c1cc(=O)[nH]c2ccccc12 (stereo not drawn)", "discrete-label": 0.0}
{"compound": "Cn1c(=O)n(C)c2cc(S(=O)(=O)N3CCCc4ccccc43)ccc21", "discrete-label": 0.0}
{"compound": "C=CCOc1ccc(C(=O)Nc2ccccc2C(=O)N2CCCC2)cc1", "discrete-label": 0.0}
{"compound": "Cc1ccc(NC(=O)c2cccc(S(=O)(=O)N3CCCc4ccccc43)c2)nc1", "discrete-label": 1.0}
{"compound": "Cc1nc2ccccc2n1CC(O)c1ccccc1 (stereo not drawn)", "discrete-label": 0.0}
{"compound": "CC1CCN(C(=O)c2cccc(S(=O)(=O)N3CCCc4ccccc43)c2)CC1", "discrete-label": 0.0}
{"compound": "NS(=O)(=O)c1ccc(CNC(=O)c2cccc(S(=O)(=O)N3CCc4ccccc43)c2)cc1", "discrete-label": 1.0}

[ask] How did this test come out for COc1ccc(F)cc1C(=O)COC(=O)c1n[nH]c(=O)c2ccccc12 ?
[reply] 0.0

====

Assay: Primary qHTS for delayed death inhibitors of the malarial parasite plastid, 48 hour incubation
Conditions: P. falciparum luciferase growth in erythrocytes; series mostly up to 28.7 µM
Screen size: about 310,000 compounds; about 18,000 (5.8%) were called active. About 22% were inconclusive and are not listed. Calls follow the shape of the dose curve; as a rule, active = well fitted inhibition curve with a large enough effect; inconclusive = small, poorly fitted or top-dose-only effect, or another doubt; inactive = no such curve, though single readings can be large or run the other way. Only a selection was taken, and actives are over-represented in it overall.
Log the outcome using a class from active, inactive

Reference set, count: 10
{"compound": "CCN1CCN(c2ccc(NC(=O)c3cnccn3)cc2)CC1", "discrete-label": "inactive"}
{"compound": "c1ccc(-c2cn3cccnc3n2)cc1", "discrete-label": "inactive"}
{"compound": "Cc1cccc(COc2ccccc2/C=N/Nc2ccc([N+](=O)[O-])cc2)c1", "discrete-label": "inactive"}
{"compound": "COc1ccc(CNC(=O)C2CCN(S(=O)(=O)N3CCOCC3)CC2)cc1", "discrete-label": "inactive"}
{"compound": "Cc1cccc(C(=O)NCC(=O)OCC(=O)N2CC3(C)CC2CC(C)(C)C3)c1 (stereo not given)", "discrete-label": "inactive"}
{"compound": "Cc1nnnn1/C(=C\\c1ccccc1)C(=O)OCC(=O)N1CC2(C)CC1CC(C)(C)C2 (stereo not given)", "discrete-label": "active"}
{"compound": "COCCN1CCN(C(=O)c2cc(COc3ccc(F)cc3Cl)on2)CC1", "discrete-label": "inactive"}
{"compound": "CN(C(=O)C1CCN(c2ncnc3c2nc2n3CCCCC2)CC1)C1CCCCC1", "discrete-label": "inactive"}
{"compound": "CCOC(CNC(=O)C(=O)NCC(c1ccco1)N1CCN(c2ccc(OC)cc2)CC1)OCC (stereo not given)", "discrete-label": "inactive"}
{"compound": "CCOC(=O)N1CCN(C(=O)CSc2nc(=O)n3cccc(C)c3n2)CC1", "discrete-label": "inactive"}

[ask] Called result for O=C(NCC(=O)N1CCCCCCC1)c1ccccc1Cl
[reply] inactive

[ask] Give the logged outcome of this assay for the following compound: COCCN(CCOC)C(=S)Nc1ccccc1Cl
[reply] inactive

[ask] Could you kindly confirm the outcome this assay logged for Cc1cc(Oc2ccc(Cl)cc2)nc(SCC(=O)c2ccccc2)n1 ?
[reply] inactive

[ask] Short answer needed: outcome of this test for CN1CCc2ccccc2C1Cc1ccccc1NC(=O)c1sc2ccccc2c1Cl (stereo not given) ?
[reply] active

[ask] Can you look up the reported call for CC(C)(C)OC(=O)Nc1ccc([C@@H](NC(=O)OC(C)(C)C)C(=O)OC(C)(C)C)cc1 for me?
[reply] active

[ask] Tell me the recorded outcome of this test for Cc1ccc(C(=O)OCC(=O)NCc2cc(C)c(O)c(C)c2)cc1S(=O)(=O)N1CCCCC1 .
[reply] active

[ask] Short answer needed: outcome of this test for COc1ccc(NS(=O)(=O)c2cc(NC(=O)/C=C/c3cc(OC)c(OC)c(OC)c3)ccc2N2CCCCC2)cc1 ?
[reply] active

====

Test: Primary qHTS for delayed death inhibitors of the malarial parasite plastid, 48 hour incubation
Conditions: P. falciparum luciferase growth in erythrocytes; series mostly up to 28.7 µM
Out of some 310,000 compounds screened, about 18,000 (5.8%) were called active. Inconclusive results (about 22%) are left out. The call rests on the fitted dose curve; in most records, active means well fitted inhibition curve with a large enough effect; inconclusive means small, poorly fitted or top-dose-only effect, or another doubt; inactive means no such curve, though single readings can be large or run the other way. Shown is part of a subset that was picked to be rich in actives.
Thanks in advance; please answer with one of these: True (active), False (inactive)

Please review the following examples before continuing.
{"molecule": "COc1cc(OC)cc(C(=O)NC2CCN(C(=O)N3c4ccccc4Sc4ccccc43)CC2)c1", "discrete-label": "True"}
{"molecule": "CC(=O)c1ccc(S(=O)(=O)NCc2nnnn2-c2ccccc2)cc1", "discrete-label": "False"}
{"molecule": "CSc1nc2ccc(C)cc2c(=O)n1-c1cccnc1", "discrete-label": "False"}

Continue with the next molecule.
[ask] Per the assay record, what outcome was assigned to Cc1cc(CNC(=O)C2CCC(=O)N(CCc3ccc(Cl)cc3)C2)no1 (stereo not given) ?
[reply] False

====

Assay: Primary qHTS for delayed death inhibitors of the malarial parasite plastid, 48 hour incubation; also: potency is read from the fitted curve at half-maximal effect
Settings: P. falciparum luciferase growth in erythrocytes; series mostly up to 28.7 µM
Out of some 310,000 compounds screened, about 18,000 (5.8%) were called active. Not shown: some 22% with an inconclusive outcome. For the sample, actives were picked, then their nearest neighbours and some compounds at random.
measured-property: Potency

{"compound": "COCCNc1nc(N)c([N+](=O)[O-])c(NCCO)n1", "Potency": "inactive"}
{"compound": "O=C(COC(=O)c1ccc(F)cc1)NCCCc1ccccc1", "Potency": "inactive"}
{"compound": "O=C(Nc1cccc(OC(=O)N2CCCCC2)c1)N1CCOCC1", "Potency": "10.4 µM (active)"}
{"compound": "CCN1/C(=C/c2ccc3ccc(C)cc3[n+]2CC)Sc2ccccc21", "Potency": "1.17 µM (active)"}
{"compound": "COc1ccc(C(=O)Nc2ccc(NC(=O)C(C)C)nc2)cc1", "Potency": "inactive"}
{"compound": "O=C(Nc1ccc(S(=O)(=O)N2CCCC2)cc1Cl)C1=COCCO1", "Potency": "inactive"}
{"compound": "COc1cccc(N2CC(NS(=O)(=O)c3cccs3)CC2=O)c1 (centres undefined)", "Potency": "inactive"}
{"compound": "Cc1cc([N+](=O)[O-])ccc1NC1CCCC1", "Potency": "inactive"}

For the 7 compounds below, give their Potency values.
1. O=C(Nc1ccccn1)C1CCN(S(=O)(=O)c2ccccc2)CC1
2. Cc1ccc(S(=O)(=O)N2CCN=C2SCc2c(F)cccc2Cl)cc1
3. CCN(CC)c1ccc(S(=O)(=O)N2CCCCC2)cc1NC(=O)C1=COCCO1
4. Nc1c(N(CCCO)C(=O)C2CCCC2)c(=O)[nH]c(=O)n1Cc1ccccc1
5. CCn1nccc1C(=O)Nc1ccc(S(=O)(=O)NC23CC4CC(CC(C4)C2)C3)cc1
6. CCOC(=O)C1(Cc2ccccc2C)CCCN(C(=O)CN2C(=O)CSC2=O)C1 (centres undefined)
7. COc1ccc(NC(=S)NCCNC(C)=O)cc1

[reply]
1. inactive
2. inactive
3. 13.1 µM (active)
4. inactive
5. 6.57 µM (active)
6. inactive
7. inactive

I have 3 compounds here; please give me Potency for each one.
1. CCN1/C(=C\c2ccc3ccccc3[n+]2CC)Sc2cc(C)ccc21
2. N#Cc1c(/N=C/N2CCCC2)oc(-c2ccccc2)c1-c1ccccc1
3. Cc1cc(C)cc(N(CCC#N)C(=O)CN2C(=O)NC3(CCCC3)C2=O)c1

[reply]
1. 1.17 µM (active)
2. 4.65 µM (active)
3. inactive
